N-terminal 6His-tagged ROCK2 catalytic domain 11-552 (Homo sapiens, UniProt O75116) IC50 data
Sequence (O75116 11-552): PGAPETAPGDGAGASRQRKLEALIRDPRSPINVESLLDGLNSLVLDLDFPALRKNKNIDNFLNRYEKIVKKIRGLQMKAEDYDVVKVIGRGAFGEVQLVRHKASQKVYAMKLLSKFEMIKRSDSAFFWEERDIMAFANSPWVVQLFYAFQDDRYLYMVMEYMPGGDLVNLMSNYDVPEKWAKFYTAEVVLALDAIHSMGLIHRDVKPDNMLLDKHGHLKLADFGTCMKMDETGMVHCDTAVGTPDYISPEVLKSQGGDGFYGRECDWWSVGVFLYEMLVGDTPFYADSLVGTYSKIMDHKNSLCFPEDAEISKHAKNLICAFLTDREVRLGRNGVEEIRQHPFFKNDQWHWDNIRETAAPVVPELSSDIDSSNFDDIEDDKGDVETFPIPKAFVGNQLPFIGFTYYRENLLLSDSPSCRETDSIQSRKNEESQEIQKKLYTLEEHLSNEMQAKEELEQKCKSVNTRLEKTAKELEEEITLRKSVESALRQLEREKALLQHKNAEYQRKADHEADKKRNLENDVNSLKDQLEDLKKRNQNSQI

Prompt: Need IC50, item CCc1c(Nc2nc(-c3ccc(C(=O)NCC(F)(F)F)c(OC)c3)nn2C)ccc2[nH]ncc12
Response: < 300 nM

Prompt: Need IC50, item CCNC(=O)c1ccc(-c2nc(Nc3ccc4[nH]ncc4c3Cl)n(C)n2)cc1F
Response: < 300 nM

Prompt: Need IC50, item Cn1nc(-c2ccc(C(=O)NCC(N)=O)cc2)nc1Nc1ccc2[nH]ncc2c1C1CC1
Response: 300 to 3000 nM

Prompt: Need IC50, item COc1cc(-c2nc(Nc3ccc4[nH]ncc4c3Cl)n(C)n2)ccc1OCC(=O)NC1(CO)CC1
Response: < 300 nM

Prompt: Need IC50, item Cn1nc(-c2ccc3c(c2)CCN(C(=O)C2CC2)C3)nc1Nc1ccc2[nH]ncc2c1Cl
Response: < 300 nM

Prompt: Need IC50, item Cn1nc(-c2ccc(N)nc2)nc1Nc1ccc2[nH]ncc2c1Cl
Response: 300 to 3000 nM

Prompt: Need IC50, item COCCn1nc(-c2ccc(C(=O)NC3CC3)cc2)nc1Nc1ccc2[nH]ncc2c1C1CC1
Response: < 300 nM

Prompt: Need IC50, item CCC(=O)Nc1ccc(-c2nc(Nc3ccc4[nH]ncc4c3Cl)n(C)n2)cc1OC
Response: < 300 nM
